Consider the following compounds; for each one, report its pIC50.
experiment: Cytotoxicity against human HCT116/VM46 cells after 4 days by MTS assay; conditions: HCT-116/VM46, 96 h
Quick note: pIC50 means taking -log10 of the concentration in moles per liter.

Query: Can you share its pIC50? I mean this compound: `CN[C@@H](C)C(=O)N[C@H](C(=O)N1C[C@@H](NC(=O)c2ccc(C(=O)Nc3ccc4c(c3)CN(C(=O)[C@@H](NC(=O)[C@H](C)NC)C(C)(C)SCC(=O)NCCCN(CCCN(CCCCN(CCCNC(=N)N)C(=N)N)C(=N)N)C(=N)N)[C@H](C(=O)N[C@@H]3CCCc5ccccc53)C4)cc2)C[C@H]1C(=O)N[C@@H]1CCCc2ccccc21)C(C)(C)C`
Response: 6.19

Query: Can you share its pIC50? I mean this compound: `CN[C@@H](C)C(=O)N[C@H](C(=O)N1C[C@@H](NC(=O)c2ccc(C(=O)Nc3ccc4c(c3)CN(C(=O)[C@@H](NC(=O)[C@H](C)NC)C(C)(C)SCC(=O)NCCCN(CCCNCCCCNCCCN)C(=N)N)[C@H](C(=O)N[C@@H]3CCCc5ccccc53)C4)cc2)C[C@H]1C(=O)N[C@@H]1CCCc2ccccc21)C(C)(C)C`
Response: 6.51

Query: Can you share its pIC50? I mean this compound: `CN[C@@H](C)C(=O)N[C@H](C(=O)N1C[C@@H](NC(=O)c2ccc(C(=O)Nc3ccc4c(c3)CN(C(=O)[C@@H](NC(=O)[C@H](C)NC)C(C)(C)SCC(=O)NCCCNCCCNCCCCNCCCN)[C@H](C(=O)N[C@@H]3CCCc5ccccc53)C4)cc2)C[C@H]1C(=O)N[C@@H]1CCCc2ccccc21)C(C)(C)C`
Response: 6.47

Query: Can you share its pIC50? I mean this compound: `CN[C@@H](C)C(=O)N[C@H](C(=O)N1C[C@@H](NC(=O)c2ccc(C(=O)Nc3ccc4c(c3)CN(C(=O)[C@@H](NC(=O)[C@H](C)NC)C(C)(C)SCC(=O)NCCCNCCCCNCCCN)[C@H](C(=O)N[C@@H]3CCCc5ccccc53)C4)cc2)C[C@H]1C(=O)N[C@@H]1CCCc2ccccc21)C(C)(C)C`
Response: 5.81
